Values were extracted from patent US9708325B2.

# systemTested: human TLR8 (Homo sapiens (Human), UniProt Q9NR97)
# Sequence (Q9NR97 27-1041): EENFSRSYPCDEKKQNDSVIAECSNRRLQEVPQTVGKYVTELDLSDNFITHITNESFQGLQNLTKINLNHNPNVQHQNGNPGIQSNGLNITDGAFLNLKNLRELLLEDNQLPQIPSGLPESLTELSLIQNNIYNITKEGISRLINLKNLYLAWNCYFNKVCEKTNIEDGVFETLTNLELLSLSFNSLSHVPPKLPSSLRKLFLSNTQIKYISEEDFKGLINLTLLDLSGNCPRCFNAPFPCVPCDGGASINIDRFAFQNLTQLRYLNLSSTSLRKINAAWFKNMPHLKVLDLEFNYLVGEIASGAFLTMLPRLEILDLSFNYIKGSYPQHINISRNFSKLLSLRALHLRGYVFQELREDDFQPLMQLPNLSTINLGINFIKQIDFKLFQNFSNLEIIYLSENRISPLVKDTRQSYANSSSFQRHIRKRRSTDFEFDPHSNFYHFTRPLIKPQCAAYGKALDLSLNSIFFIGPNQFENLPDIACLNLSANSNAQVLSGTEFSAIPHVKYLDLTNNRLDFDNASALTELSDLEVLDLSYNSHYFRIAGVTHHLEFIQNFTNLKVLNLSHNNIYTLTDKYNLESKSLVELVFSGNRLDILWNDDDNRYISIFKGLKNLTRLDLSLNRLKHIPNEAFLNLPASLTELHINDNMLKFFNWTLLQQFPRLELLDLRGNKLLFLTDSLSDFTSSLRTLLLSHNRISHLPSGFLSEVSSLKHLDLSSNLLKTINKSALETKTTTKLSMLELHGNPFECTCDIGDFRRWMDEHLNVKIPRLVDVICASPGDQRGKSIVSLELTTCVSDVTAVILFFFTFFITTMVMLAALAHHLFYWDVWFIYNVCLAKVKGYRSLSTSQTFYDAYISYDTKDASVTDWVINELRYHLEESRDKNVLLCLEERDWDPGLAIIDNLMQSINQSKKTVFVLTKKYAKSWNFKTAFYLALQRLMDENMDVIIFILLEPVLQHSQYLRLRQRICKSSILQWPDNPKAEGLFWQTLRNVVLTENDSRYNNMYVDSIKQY
# procedureSummary: HEK-Blue-hTLR8 cells assay and selectivity index
# Format: cell-based
# conditionDetails: HEK-Blue-hTLR8 cells, SEAP reporter, 20 hrs; read-out: HEK Blue hTLR-8 EC50
pEC50: −log10 of the molar value.

{"molecule": "CNC(=O)c1nc(N)c2[nH]c(=O)n(Cc3ccccc3)c2n1 [Example P-5, reference compound]", "pEC50": "< 3.00"}
{"molecule": "CS(=O)(=O)c1nc(N)c2[nH]c(=O)n(Cc3ccccc3)c2n1 [Example S-1, reference compound]", "pEC50": "< 3.00"}

###

# systemTested: human TLR8 (Homo sapiens (Human), UniProt Q9NR97)
# procedureSummary: HEK-Blue-hTLR8 cells assay and selectivity index
# Format: cell-based
# Description: A stable HEK-Blue-hTLR8 cell line was purchased from InvivoGen (Cat.#: HEK-Blue-htlr8, San Diego, Calif., USA). These cells were designed for studying the stimulation of human TLR8 by monitoring the activation of NF-κB. […] The cell culture supernatant SEAP reporter activity was determined using QUANTI-Blue™ kit (Cat.#: rep-qb1, Invivogen, San Diego, Ca, USA) at a wavelength of 640 nm, a detection medium that turns purple or blue in the presence of alkaline phosphatase. […]

{"compound": "CCS(=N)(=O)c1nc(N)c2[nH]c(=O)n(Cc3ccc(Cl)cc3)c2n1 (centres unmarked)", "relationalOperator": "=", "EC50 / µM": 90}
{"compound": "CCCCOc1nc(N)c2c(n1)N(Cc1cccc(CN3CCCC3)c1)CC(=O)N2", "relationalOperator": "=", "EC50 / µM": 11.6}
{"compound": "CS(=N)(=O)c1nc(N)c2[nH]c(=O)n(Cc3ccncc3)c2n1 (centres unmarked)", "relationalOperator": ">", "EC50 / µM": 1000}
{"compound": "CS(=N)(=O)c1nc(N)c2[nH]c(=O)n(Cc3cccnc3)c2n1 (centres unmarked)", "relationalOperator": ">", "EC50 / µM": 1000}
{"compound": "CS(=N)(=O)c1nc(N)c2[nH]c(=O)n(Cc3ccc(Cl)cc3)c2n1 (centres unmarked)", "relationalOperator": "=", "EC50 / µM": 300}

###

# systemTested: UniProtKB Q12809
# procedureSummary: hERG channel inhibition assay (patch-clamp, CHOhERG cells)
# Type: cell-based
# conditionDetails: human
measureName: IC20

{"molecule": "CCCS(=N)(=O)c1nc(N)c2[nH]c(=O)n(Cc3ccc(C)nc3)c2n1 (stereo not shown)", "measureName": "IC20", "readoutValue": "> 10 µM"}

###

// reported Safety ratio (hERG IC20/EC50) per item
# systemTested: hERG channel (Homo sapiens (Human), UniProt Q12809)
# Sequence (Q12809 whole entry): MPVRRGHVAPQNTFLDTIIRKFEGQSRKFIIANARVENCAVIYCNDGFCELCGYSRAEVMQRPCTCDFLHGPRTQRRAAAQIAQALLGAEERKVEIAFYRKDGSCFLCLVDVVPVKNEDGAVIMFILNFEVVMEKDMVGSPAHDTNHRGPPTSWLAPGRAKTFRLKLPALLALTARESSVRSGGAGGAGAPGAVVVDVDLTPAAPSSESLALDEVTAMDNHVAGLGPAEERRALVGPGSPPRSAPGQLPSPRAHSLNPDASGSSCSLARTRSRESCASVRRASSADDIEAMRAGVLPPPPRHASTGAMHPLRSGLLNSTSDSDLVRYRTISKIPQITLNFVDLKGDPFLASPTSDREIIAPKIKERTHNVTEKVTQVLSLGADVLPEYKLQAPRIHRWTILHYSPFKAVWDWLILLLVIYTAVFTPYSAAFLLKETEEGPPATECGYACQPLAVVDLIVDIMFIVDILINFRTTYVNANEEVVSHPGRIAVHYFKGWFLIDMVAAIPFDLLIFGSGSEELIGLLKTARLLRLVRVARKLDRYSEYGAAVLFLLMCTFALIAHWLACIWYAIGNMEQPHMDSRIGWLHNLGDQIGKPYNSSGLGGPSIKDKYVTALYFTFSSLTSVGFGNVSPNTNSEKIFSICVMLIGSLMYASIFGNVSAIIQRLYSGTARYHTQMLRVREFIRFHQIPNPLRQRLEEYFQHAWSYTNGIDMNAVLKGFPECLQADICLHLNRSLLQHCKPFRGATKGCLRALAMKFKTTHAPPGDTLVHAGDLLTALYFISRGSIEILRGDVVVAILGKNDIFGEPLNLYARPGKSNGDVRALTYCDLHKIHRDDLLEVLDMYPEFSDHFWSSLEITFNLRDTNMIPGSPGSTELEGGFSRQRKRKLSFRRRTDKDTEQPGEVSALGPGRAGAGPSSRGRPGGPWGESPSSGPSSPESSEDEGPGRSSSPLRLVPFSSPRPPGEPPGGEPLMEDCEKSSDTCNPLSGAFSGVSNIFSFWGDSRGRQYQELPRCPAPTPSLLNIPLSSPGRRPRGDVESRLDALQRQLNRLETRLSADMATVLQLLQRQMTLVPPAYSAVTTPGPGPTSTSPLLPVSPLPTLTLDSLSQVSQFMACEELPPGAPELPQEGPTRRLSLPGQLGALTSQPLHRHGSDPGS
# procedureSummary: hERG channel inhibition assay (patch-clamp, CHOhERG cells)
# Format: cell-based
# conditionDetails: hERG IC20/EC50

{"compound": "CCCS(=N)(=O)c1nc(N)c2[nH]c(=O)n(Cc3ccc(C(=O)O)cc3)c2n1 (centres unmarked)", "Safety ratio (hERG IC20/EC50)": ">59"}
{"compound": "CCCS(=N)(=O)c1nc(N)c2[nH]c(=O)n(Cc3ccccc3)c2n1 (single isomer, unassigned) [Example 4-A]", "Safety ratio (hERG IC20/EC50)": ">149"}
{"compound": "CCCS(=N)(=O)c1nc(N)c2[nH]c(=O)n(Cc3ccc(Cl)cc3)c2n1 (centres unmarked)", "Safety ratio (hERG IC20/EC50)": ">833"}
{"compound": "CCCS(=N)(=O)c1nc(N)c2[nH]c(=O)n(Cc3ccc(C)cc3)c2n1 (single isomer, unassigned) [Example 29-A]", "Safety ratio (hERG IC20/EC50)": ">526"}
{"compound": "CCS(=N)(=O)c1nc(N)c2[nH]c(=O)n(Cc3ccc(C)cc3)c2n1 (single isomer, unassigned)", "Safety ratio (hERG IC20/EC50)": ">75"}

###

# systemTested: human TLR8 (Homo sapiens (Human), UniProt Q9NR97)
# procedureSummary: HEK-Blue-hTLR8 cells assay and selectivity index
# Type: cell-based
# conditionDetails: EC50(TLR8) value/EC50(TLR7) value
// reported Selective index per item

{"compound": "CCCCOc1nc(N)c2c(n1)N(Cc1cccc(CN3CCCC3)c1)CC(=O)N2 [GS-9620]", "systemTested": "human TLR8 (Homo sapiens (Human), UniProt Q9NR97)", "Selective index": 14}
{"compound": "CS(=N)(=O)c1nc(N)c2[nH]c(=O)n(Cc3ccncc3)c2n1 (stereo not shown) [Example 20]", "systemTested": "human TLR8 (Homo sapiens (Human), UniProt Q9NR97)", "Selective index": ">3846"}
{"compound": "CS(=O)(=O)c1nc(N)c2[nH]c(=O)n(Cc3ccccc3)c2n1 [Example S-1, reference compound]", "systemTested": "human TLR8 (Homo sapiens (Human), UniProt Q9NR97)", "Selective index": ">2703"}
{"compound": "CS(=N)(=O)c1nc(N)c2[nH]c(=O)n(Cc3cccnc3)c2n1 (stereo not shown) [Example 16]", "systemTested": "human TLR8 (Homo sapiens (Human), UniProt Q9NR97)", "Selective index": ">4546"}

###

# EC50 per record follows
# systemTested: human TLR7 (Homo sapiens (Human))
# Sequence (Q9NYK1 27-1049): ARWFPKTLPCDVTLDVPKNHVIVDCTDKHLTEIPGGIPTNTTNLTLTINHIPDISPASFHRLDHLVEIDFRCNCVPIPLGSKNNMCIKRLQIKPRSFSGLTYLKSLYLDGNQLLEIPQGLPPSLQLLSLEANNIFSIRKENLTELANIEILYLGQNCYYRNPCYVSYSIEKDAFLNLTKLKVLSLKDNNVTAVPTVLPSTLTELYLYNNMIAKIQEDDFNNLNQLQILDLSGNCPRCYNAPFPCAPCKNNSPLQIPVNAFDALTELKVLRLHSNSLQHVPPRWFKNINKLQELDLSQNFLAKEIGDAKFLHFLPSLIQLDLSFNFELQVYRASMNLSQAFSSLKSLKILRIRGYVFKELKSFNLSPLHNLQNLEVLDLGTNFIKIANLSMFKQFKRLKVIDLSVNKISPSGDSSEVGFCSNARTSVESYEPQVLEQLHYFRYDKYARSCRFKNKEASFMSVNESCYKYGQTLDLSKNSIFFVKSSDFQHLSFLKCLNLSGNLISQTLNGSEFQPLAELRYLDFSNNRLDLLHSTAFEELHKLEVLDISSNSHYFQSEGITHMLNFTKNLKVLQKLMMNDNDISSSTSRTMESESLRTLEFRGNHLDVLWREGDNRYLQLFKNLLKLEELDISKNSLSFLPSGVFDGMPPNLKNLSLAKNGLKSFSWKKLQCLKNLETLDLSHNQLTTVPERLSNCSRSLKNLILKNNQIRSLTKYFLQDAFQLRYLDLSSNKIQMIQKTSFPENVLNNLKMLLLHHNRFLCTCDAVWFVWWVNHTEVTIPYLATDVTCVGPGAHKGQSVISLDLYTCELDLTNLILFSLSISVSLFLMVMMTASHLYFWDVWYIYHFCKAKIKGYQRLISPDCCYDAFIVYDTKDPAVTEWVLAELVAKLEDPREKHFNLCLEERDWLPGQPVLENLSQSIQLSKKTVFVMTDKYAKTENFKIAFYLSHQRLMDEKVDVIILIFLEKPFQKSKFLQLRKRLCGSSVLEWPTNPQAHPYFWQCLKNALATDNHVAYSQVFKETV
# procedureSummary: HEK-Blue-hTLR7 cells assay (SEAP reporter)
# Assay type: cell-based
# conditionDetails: 20 hrs, read-out: HEK-Blue-hTLR7 (EC50 (μM))
measureName: EC50 (µM)

{"compound": "CCCS(=N)(=O)c1nc(N)c2[nH]c(=O)n(Cc3ccc(C(=O)O)cc3)c2n1 (stereo not shown)", "readoutValue": 0.17}
{"compound": "CCS(=N)(=O)c1nc(N)c2[nH]c(=O)n(Cc3ccc(Cl)cc3)c2n1 (stereo not shown)", "readoutValue": 0.057}
{"compound": "CCCS(=N)(=O)c1nc(N)c2[nH]c(=O)n(Cc3ccnc(C)c3)c2n1 (stereo not shown)", "readoutValue": 0.12}
{"compound": "CS(=N)(=O)c1nc(N)c2[nH]c(=O)n(Cc3ccncc3)c2n1 (stereo not shown)", "readoutValue": 0.26}
{"compound": "CCS(=N)(=O)c1nc(N)c2[nH]c(=O)n(Cc3ccccc3)c2n1 (stereo not shown)", "readoutValue": 0.2}
{"compound": "CS(=N)(=O)c1nc(N)c2[nH]c(=O)n(Cc3cccnc3)c2n1 (stereo not shown)", "readoutValue": 0.22}
{"compound": "COCCCS(=N)(=O)c1nc(N)c2[nH]c(=O)n(Cc3ccccc3)c2n1 (stereo not shown)", "readoutValue": 0.43}
{"compound": "CS(=N)(=O)c1nc(N)c2[nH]c(=O)n(Cc3ccccn3)c2n1 (stereo not shown)", "readoutValue": 0.67}
{"compound": "CCCS(=N)(=O)c1nc(N)c2[nH]c(=O)n(Cc3ccc(Cl)c(F)c3)c2n1 (stereo not shown)", "readoutValue": 0.018}
{"compound": "CCCS(=N)(=O)c1nc(N)c2[nH]c(=O)n(Cc3ccc(C(=O)OC)cc3)c2n1 (stereo not shown)", "readoutValue": 0.075}
{"compound": "CCCS(=N)(=O)c1nc(N)c2[nH]c(=O)n(Cc3ccc(C(=O)N4CCCCC4)cc3)c2n1 (stereo not shown)", "readoutValue": 0.084}
{"compound": "CCCS(=N)(=O)c1nc(N)c2[nH]c(=O)n(Cc3ccc(Br)cc3)c2n1 (stereo not shown)", "readoutValue": 0.0096}
{"compound": "CCCS(=N)(=O)c1nc(N)c2[nH]c(=O)n(Cc3ccccc3Cl)c2n1 (stereo not shown)", "readoutValue": 0.19}
{"compound": "COc1ccc(Cn2c(=O)[nH]c3c(N)nc(S(C)(=N)=O)nc32)cc1 (stereo not shown)", "readoutValue": 0.074}
{"compound": "CCCS(=N)(=O)c1nc(N)c2[nH]c(=O)n(Cc3ccccc3)c2n1 (stereo not shown) [Example 4]", "readoutValue": 0.065}
{"compound": "CCCCS(=N)(=O)c1nc(N)c2[nH]c(=O)n(Cc3ccccc3)c2n1 (stereo not shown)", "readoutValue": 0.32}
{"compound": "CCCCOc1nc(N)c2c(n1)N(Cc1cccc(CN3CCCC3)c1)CC(=O)N2", "readoutValue": 0.8}
{"compound": "CCCS(=N)(=O)c1nc(N)c2[nH]c(=O)n(Cc3cccc(Cl)c3)c2n1 (stereo not shown)", "readoutValue": 0.042}
{"compound": "CCCS(=N)(=O)c1nc(N)c2[nH]c(=O)n(Cc3ccc(C(N)=O)cc3)c2n1 (stereo not shown)", "readoutValue": 0.066}
{"compound": "CCCS(=N)(=O)c1nc(N)c2[nH]c(=O)n(Cc3ccc(Cl)cc3)c2n1 (stereo not shown)", "readoutValue": 0.012}
{"compound": "CCCS(=N)(=O)c1nc(N)c2[nH]c(=O)n(Cc3ccc(F)cc3F)c2n1 (stereo not shown)", "readoutValue": 0.04}
{"compound": "CCCS(=N)(=O)c1nc(N)c2[nH]c(=O)n(Cc3ccc(C)c(Cl)c3)c2n1 (stereo not shown)", "readoutValue": 0.022}
{"compound": "CS(=O)(=O)c1nc(N)c2[nH]c(=O)n(Cc3ccccc3)c2n1 [Example S-1, reference compound]", "readoutValue": 0.37}
{"compound": "CCCS(=N)(=O)c1nc(N)c2[nH]c(=O)n(Cc3ccc(C)cc3)c2n1 (stereo not shown)", "readoutValue": 0.027}
{"compound": "CCCS(=N)(=O)c1nc(N)c2[nH]c(=O)n(Cc3ccc(C(=O)NCCOC)cc3)c2n1 (stereo not shown)", "readoutValue": 0.15}
{"compound": "CS(=N)(=O)c1nc(N)c2[nH]c(=O)n(Cc3ccccc3)c2n1 (stereo not shown)", "readoutValue": 0.3}
{"compound": "CCCS(=N)(=O)c1nc(N)c2[nH]c(=O)n(Cc3ccc(S(C)(=O)=O)cc3)c2n1 (stereo not shown)", "readoutValue": 0.023}
{"compound": "CCCS(=N)(=O)c1nc(N)c2[nH]c(=O)n(Cc3cccc(C(N)=O)c3)c2n1 (stereo not shown)", "readoutValue": 0.047}
{"compound": "CCCS(=N)(=O)c1nc(N)c2[nH]c(=O)n(Cc3cnc(C)nc3)c2n1 (stereo not shown)", "readoutValue": 0.136}
{"compound": "CCCS(=N)(=O)c1nc(N)c2[nH]c(=O)n(Cc3ccc(F)cc3)c2n1 (stereo not shown)", "readoutValue": 0.037}
{"compound": "CNC(=O)c1nc(N)c2[nH]c(=O)n(Cc3ccccc3)c2n1 [Example P-5, reference compound]", "readoutValue": 3.14}
{"compound": "CCCS(=N)(=O)c1nc(N)c2[nH]c(=O)n(Cc3ccc(C(F)(F)F)cc3)c2n1 (stereo not shown)", "readoutValue": 0.016}
{"compound": "CCCS(=N)(=O)c1nc(N)c2[nH]c(=O)n(Cc3ccccc3)c2n1 (single isomer, unassigned) [Example 4-A]", "readoutValue": 0.067}
{"compound": "COCCS(=N)(=O)c1nc(N)c2[nH]c(=O)n(Cc3ccccc3)c2n1 (stereo not shown)", "readoutValue": 0.33}
